- assay-system: T1, recombinant human MOG protein (human, UniProt Q16653 30-154, limits assumed)
- T1 construct: Bought recombinant protein; also called HMOG
- T1 sequence (looked up): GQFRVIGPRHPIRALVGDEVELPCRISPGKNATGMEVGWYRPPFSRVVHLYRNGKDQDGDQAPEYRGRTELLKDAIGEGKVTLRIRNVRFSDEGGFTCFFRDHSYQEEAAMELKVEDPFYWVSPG
- protocol: phage-scFv ELISA on coated recombinant human MOG (0.5 µg/well), anti-M13 HRP, OD450 over BSA background
endpoint: ratio OD on target/OD bdf (ratio)
Give the value in ratio but do not write ratio after it.

[[record]]
binder = "anti-MOG MO3I-60 antibody (scFv, V domains shown) VH: EVQLVESGGGLVKPGGSLGLSCAASGFTFTNAWGHWVRQAPGKGLEWVGRIKSKTDGGTTDYAAPVKDRFSISRDDSKNTLYLQMNSPTTEDTAVYYCATENGMDIVTTFDSWGQGTLVTVSS VL: AIRMTQSPSSLSASVGDRVTITCRASQSIGSYLSWYRQKPGKAPKLLIYDSSTLQSGVASRFSGSGSGTDFTLTISALQPEDFATYYCHQSYRTPLSFGGGTKVEIK"
endpoint = "ratio OD on target/OD bdf"
observed_measurement = 2.09


Tell me its ratio OD on target/OD bdf given anti-MOG MO3I-34 antibody (scFv, V domains shown) VH: EVQLVQSGAEVKKPGASVKVSCKASGYTFTSYGISWVRQAPGQGLEWMGWISAYNGNTNYAQKLQGRVTMTTDTSTSTAYMELRSLRSDDTAVYYCARNMGCSSTSCFVSWFDPWGQGTLVTVSS VL: QSVLTQPPSVSAAPGQKVTISCSGSRSNIGSNYVSWYQQLPGTAPKLLIYDNTRRPSGIPDRFYGSKSGTSATLDITGLQTGDEADYHCATWDSSLSALLFGGGTKVTVL as the entry. 2.14

Tell me its ratio OD on target/OD bdf given anti-MOG MO4H-03 antibody (scFv, V domains shown) VH: QVQLVQSGTEVKKPGASVKVSCKVSGYTLTELSMHWVRQAPGKGLEWMGGFDPEDGETIYAQKFQGRVTMTEDTSTDTAYMELSSLRSEDTAVYYCATGATGAFDIWGQGTTVTVSS VL: DIVMTQTPLSSPVTLGQPASISCRSSQSLVDSDGNTYLNWLQQRPGQPPRLLIYKISNRFSGVPDRFSGSGAGTEFTLKISRVEAEDVGVYYCMQATQFPHTFGQGTKLEIK as the entry. 5.14

Tell me its ratio OD on target/OD bdf given anti-MOG MO3J-44 antibody (scFv, V domains shown) VH: QVQLVQSGAEVRKPGASVKISCQISGYNFISYTIQWVRQAPGQRPEWMGWINSGNGNTKYSQKFQGRVTFTRDTSTSTAYMELSSLRSEDTAVYYCARSGIGPWGQGTLVTVSS VL: EIVLTQPPDLQSVTPKKKVTITCRASQSIGNSLHWCQQKPDQSPKLLIKYASQSISGVPSRFSGSGSGTDFTLTINSLEAEDAATYYCHQSSSLPFTFGPGTKVDIK as the entry. 14.5
